Values from ChEMBL document CHEMBL1143744

Field: Ki. Provide a value for each of the compounds that follow.
- TESTED_TARGET: Deoxyhypusine synthase (Plasmodium falciparum, UniProt Q9GSW0)
- Sequence (Q9GSW0 whole entry): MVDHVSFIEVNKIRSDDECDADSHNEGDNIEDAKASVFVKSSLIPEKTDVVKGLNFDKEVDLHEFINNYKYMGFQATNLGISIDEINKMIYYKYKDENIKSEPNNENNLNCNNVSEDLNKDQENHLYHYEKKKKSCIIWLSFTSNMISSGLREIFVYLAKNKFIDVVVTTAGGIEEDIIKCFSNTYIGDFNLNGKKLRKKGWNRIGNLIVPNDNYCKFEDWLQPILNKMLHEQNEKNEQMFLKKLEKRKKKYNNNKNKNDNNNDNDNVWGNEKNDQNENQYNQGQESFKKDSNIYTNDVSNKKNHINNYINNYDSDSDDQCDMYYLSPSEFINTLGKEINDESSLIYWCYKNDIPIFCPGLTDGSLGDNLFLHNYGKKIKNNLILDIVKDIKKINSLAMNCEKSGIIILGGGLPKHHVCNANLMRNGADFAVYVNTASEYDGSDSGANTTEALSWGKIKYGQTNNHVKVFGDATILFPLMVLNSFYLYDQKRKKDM
- PROTOCOL_SUMMARY: Inhibition of recombinant deoxyhypusine synthase in Plasmodium falciparum NF54
Numbers only, in µM.

• NCCCCCCCN = 50

Data request: If you can, please state the reported Ki value of N=C(N)NCCCCCCCN .
Data returned: 0.1
